molecular target: Calpain-1 catalytic subunit (Gallus gallus, UniProt P00789); experiment: Inhibitory activity against chicken gizzard smooth muscle calpain
Sequence (P00789 whole entry): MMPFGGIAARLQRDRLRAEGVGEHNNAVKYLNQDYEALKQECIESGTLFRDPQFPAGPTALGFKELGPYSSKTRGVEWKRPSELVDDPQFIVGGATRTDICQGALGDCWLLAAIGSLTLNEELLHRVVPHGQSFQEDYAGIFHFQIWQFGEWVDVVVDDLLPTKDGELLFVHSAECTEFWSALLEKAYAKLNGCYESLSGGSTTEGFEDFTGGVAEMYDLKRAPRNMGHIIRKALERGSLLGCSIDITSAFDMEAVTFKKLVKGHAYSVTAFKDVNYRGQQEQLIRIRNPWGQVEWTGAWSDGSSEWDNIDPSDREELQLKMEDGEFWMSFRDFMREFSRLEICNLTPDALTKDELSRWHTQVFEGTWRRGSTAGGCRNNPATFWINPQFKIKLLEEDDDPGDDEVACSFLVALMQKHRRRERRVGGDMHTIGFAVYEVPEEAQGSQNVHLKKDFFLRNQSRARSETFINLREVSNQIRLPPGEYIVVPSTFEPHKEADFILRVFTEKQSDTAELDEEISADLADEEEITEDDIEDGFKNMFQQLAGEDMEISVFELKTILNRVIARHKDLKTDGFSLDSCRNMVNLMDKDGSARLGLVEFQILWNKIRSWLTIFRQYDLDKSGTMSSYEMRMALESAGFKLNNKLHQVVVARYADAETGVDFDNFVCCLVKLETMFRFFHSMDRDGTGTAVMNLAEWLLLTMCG
pKi: −log10 of the molar value. Non-standard residues stand in square brackets, D forms with d. Residues, ends and D or L forms follow the SMILES beside them. ξ: configuration not given here. *: point of attachment. ξF = NC(Cc1ccccc1)C(=O)O; Cbz = O=C(OCc1ccccc1)*
measured-parameter: pKi

CC(C=O)CC(=O)[C@@H](NC(=O)OCc1ccccc1)C(C)C (stereo partly drawn)    4.35

I. CC(C)[C@H](NC(=O)OCc1ccccc1)C(=O)C[C@H](C=O)Cc1ccccc1
II. CC(C)[C@H](NC(=O)OCc1ccccc1)C(=O)NC(C=O)Cc1ccccc1 (stereo partly drawn) (Cbz-Val-[ξF]-aldehyde)
Query string: Which of the two gives a bigger number for pKi: I or II ? Choose, then provide that item's label.
Result string: II
(II: 8.00, I: 5.60)
